Ref: patent US12673944B2

- Test system: GM1 production in Jurkat cells
- assay: cells
- Format: cell-based
- details: Homo sapiens, Jurkat, 72 h
Doc: threshold 6 nM (exclusive). Items with IC50 beneath it return True; others return False.

As a guide, the following entries are already answered.
compound | tested on | class
O=C(NC1CCOc2cc(-c3ccc(F)c(F)c3F)ccc21)O[C@@H]1CN2CCC1CC2 (some centres unmarked) | GM1 production in Jurkat cells | False
O=C(NC1CCSc2cc(-c3cccc(Cl)c3)ccc21)O[C@@H]1CN2CCC1CC2 (some centres unmarked) | GM1 production in Jurkat cells | False
CC1(C)COc2cc(-c3ccc(F)cc3Cl)ccc2C1NC(=O)O[C@@H]1CN2CCC1CC2 (some centres unmarked) | GM1 production in Jurkat cells | True
CC1(C)COc2cc(-c3ccc(OCC4CC4)nc3)ccc2C1NC(=O)O[C@@H]1CN2CCC1CC2 (some centres unmarked) | GM1 production in Jurkat cells | True
CC1(C)COc2cc(-c3ccc(F)c(Cl)c3)ccc2C1NC(=O)O[C@@H]1CN2CCC1CC2 (some centres unmarked) | GM1 production in Jurkat cells | True

Exercise: Strictly below 6 nM in IC50? O=C(NC1CCOc2cc(-c3ccc(N4CCOCC4)c(Cl)c3)ccc21)O[C@@H]1CN2CCC1CC2 (some centres unmarked)
Key: False

Exercise: Strictly below 6 nM in IC50? COCOc1ccc(-c2ccc3c(c2)OCC(C)(C)C3NC(=O)O[C@@H]2CN3CCC2CC3)cc1 (some centres unmarked)
Key: True
